Tested on: soluble and insoluble Aβ in the brain
EXPERIMENT NOTES: Assay 11 effect on Aβ deposits in transgenic animals (soluble and insoluble Aβ, Western blot)
Type: in vivo, APP2576 transgenic mouse
STUDY CONDITIONS: soluble Aβ, APP2576 mice
Measured Tg mice Soluble Fraction: % change compared with vehicle alone control mice of individual entries
ENDPOINT: Tg mice Soluble Fraction: % change compared with vehicle alone control mice

SMI | RESULT VALUE
Br.CCCn1cnc2c(O)c(Cl)cc(Cl)c2c1=O | −22% (sol)
O=c1c2c(Cl)cc(Cl)c(O)c2ncn1CCN1CCCC1 | −19% (sol),
Cc1nc(Cn2cnc3c(O)c(Cl)cc(Cl)c3c2=O)cs1 | −29% (sol)
O=c1c2c(Cl)cc(Cl)c(O)c2ncn1Cc1ccccn1 | −17% (sol),
Br.O=c1c2c(Cl)cc(Cl)c(O)c2ncn1CC1CC1 | −24% (sol)

====

EXPERIMENT NOTES: Assay 3(d) test compound cytotoxicity (MTS);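 also: Primary cortical neurons from embryonic day 14 BL6Jx129sv mouse cortices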
Type: cell-based
STUDY CONDITIONS: BL6Jx129sv, mouse, primary cortical neuronal cultures, 10 uM, cortical neurons, read-out: Assay 3(d) Cytotoxicity (% viable at 10 uM)
Measured viability at 4 days, 10 µM of individual entries

MOLECULE | viability at 4 days, 10 µM (%)
COc1ccc(-n2cnc3c(O)c(Cl)cc(Cl)c3c2=O)cn1 [Compound 1093] | 13
CN1CCCC1CCn1cnc2c(O)c(Cl)cc(Cl)c2c1=O (stereo not drawn) [Compound 1078] | 94
Br.Cc1cccnc1Cn1cnc2c(O)c(Cl)cc(Cl)c2c1=O [Compound 1098] | 88
O=c1c2c(Cl)cc(Cl)c(O)c2ncn1CCN1CCCC1 [Compound 1075] | 87
CCN(CC)CCn1cnc2c(O)c(Cl)cc(Cl)c2c1=O [Compound 1110] | 77
Br.O=c1c2c(Cl)cc(Cl)c(O)c2ncn1Cc1cccc(Cn2cnc3c(O)c(Cl)cc(Cl)c3c2=O)n1 [Compound 1101] | 17
CCCCn1cnc2c(O)c(Cl)cc(Cl)c2c1=O [Compound 1111] | 67
Br.CCC(C)n1cnc2c(O)c(Cl)cc(Cl)c2c1=O (stereo not drawn) [Compound 1112] | 46
O=c1c2c(Cl)cc(Cl)c(O)c2ncn1CC1CCNCC1 [Compound 1094] | 96

====

EXPERIMENT NOTES: Assay 3(d) test compound cytotoxicity (MTS);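 also: Primary cortical neurons from embryonic day 14 BL6Jx129sv mouse cortices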
Format: cell-based
STUDY CONDITIONS: BL6Jx129sv, mouse, primary cortical neuronal cultures, 10 uM, cortical neurons, read-out: Assay 3(d) Cytotoxicity (% viable at 10 uM)
ENDPOINT: viability at 4 days, 10 µM

SMI | RESULT VALUE
Cc1cnc(-n2cnc3c(O)c(Cl)cc(Cl)c3c2=O)s1 | 70%
CCn1cnc2c(O)c(Cl)cc(Cl)c2c1=O | 73%
CCn1nccc1-n1cnc2c(O)c(Cl)cc(Cl)c2c1=O | 94%
Cc1ccc(-n2cnc3c(O)c(Cl)cc(Cl)c3c2=O)nc1 | 83%

====

EXPERIMENT NOTES: Assay 3(d) test compound cytotoxicity (MTS);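 also: Primary cortical neurons from embryonic day 14 BL6Jx129sv mouse cortices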
Type: cell-based
STUDY CONDITIONS: BL6Jx129sv, mouse, primary cortical neuronal cultures, 10 uM, cortical neurons, read-out: Assay 3(d) Cytotoxicity (% viable at 10 uM)

COMPOUND | viability at 4 days, 10 µM / %
O=c1c2c(Cl)cc(Cl)c(O)c2ncn1Cc1ccccn1 [Compound 1077] | 86
Cc1nc(Cn2cnc3c(O)c(Cl)cc(Cl)c3c2=O)cs1 [Compound 1084] | 93
O=c1c2c(Cl)cc(Cl)c(O)c2ncn1N1CCOCC1 [Compound 1080] | 70
O=c1c2c(Cl)cc(Cl)c(O)c2ncn1N1CCCCC1 [Compound 1086] | 51
Br.CC(C)Cn1cnc2c(O)c(Cl)cc(Cl)c2c1=O [Compound 1107] | 59
CC(Br)CCn1cnc2c(O)c(Cl)cc(Cl)c2c1=O (stereo not drawn) [Compound 1114] | 73
O=c1c2c(Cl)cc(Cl)c(O)c2ncn1-c1cccnc1 [Compound 1092] | 81
Br.O=c1c2c(Cl)cc(Cl)c(O)c2ncn1Nc1ccc(F)cc1F [Compound 1100] | 92
O=c1c2c(Cl)cc(Cl)c(O)c2ncn1-c1ccc(Cl)cn1 [Compound 1087] | 58
